# Tm annotations
assay: melting temperature; melt of duplexes; conditions: sodium 0.0675 M; strand 1 µM
measurementName: Tm (°C)

INSERT INTO results (substance, unitssymbol, testvalue) VALUES
  ('CGACGTGCAGCATGTGCTG+CAGCACATGGGGCACGTCG ((((((((..(((((((((+)))))))))..))))))))', '°C', 56.9),
  ('CGACGTGCCTGATGTGCTG+CAGCACATTGGGCACGTCG (((((((((..((((((((+))))))))..)))))))))', '°C', 57.1),
  ('CGACGTGCGGTATGTGCTG+CAGCACATGACGCACGTCG (((((((((..((((((((+))))))))..)))))))))', '°C', 56.6),
  ('CGACGTGCTAAATGTGCTG+CAGCACATTATGCACGTCG ((((((((..(((((((((+)))))))))..))))))))', '°C', 53.1),
  ('CGACGTGCAAGATGTGCTG+CAGCACATCCCGCACGTCG ((((((((..(((((((((+)))))))))..))))))))', '°C', 52.9),
  ('CGACGTGCTGGATGTGCTG+CAGCACATTCTGCACGTCG ((((((((.(.((((((((+)))))))).).))))))))', '°C', 55.6),
  ('CGACGTGCATGATGTGCTG+CAGCACATAGTGCACGTCG (((((((((..((((((((+))))))))..)))))))))', '°C', 49.6);

* * *

experiment: melting temperature; melt of duplexes; settings: sodium 0.0675 M; strand 1 µM
measurementName: Tm (°C)

INSERT INTO measurements (substance, unitssymbol, testvalue) VALUES
  ('CGACGTGCGGAATGTGCTG+CAGCACATAACGCACGTCG (((((((((..((((((((+))))))))..)))))))))', '°C', 58.6),
  ('CGACGTGCAGGATGTGCTG+CAGCACATAACGCACGTCG ((((((((...((((((((+))))))))...))))))))', '°C', 50.8),
  ('CGACGTGCACTATGTGCTG+CAGCACATGATGCACGTCG (((((((((..((((((((+))))))))..)))))))))', '°C', 48.8),
  ('CGACGTGCTGCATGTGCTG+CAGCACATCCAGCACGTCG ((((((((((.((((((((+)))))))).))))))))))', '°C', 55.9);

* * *

# Tm annotations
assay: melting temperature; melt of duplexes; settings: sodium 0.0675 M; strand 1 µM
measurementName: Tm (°C)

INSERT INTO results (substance, measurementname, testvalue) VALUES
  ('CGACGTGCTTCATGTGCTG+CAGCACATTGCGCACGTCG ((((((((...((((((((+))))))))...))))))))', 'Tm', 46.5),
  ('CGACGTGCTGGATGTGCTG+CAGCACATTCAGCACGTCG ((((((((((.((((((((+)))))))).))))))))))', 'Tm', 60),
  ('CGACGTGCTGCATGTGCTG+CAGCACATCATGCACGTCG ((((((((...((((((((+))))))))...))))))))', 'Tm', 52.1),
  ('CGACGTGCTCTATGTGCTG+CAGCACATGACGCACGTCG ((((((((...((((((((+))))))))...))))))))', 'Tm', 47),
  ('CGACGTGCCGTATGTGCTG+CAGCACATTCGGCACGTCG ((((((((((.((((((((+)))))))).))))))))))', 'Tm', 59.9),
  ('CGACGTGCGCAATGTGCTG+CAGCACATTCAGCACGTCG ((((((((..(((((((((+)))))))))..))))))))', 'Tm', 53.1),
  ('CGACGTGCTTGATGTGCTG+CAGCACATAAGGCACGTCG ((((((((.(.((((((((+)))))))).).))))))))', 'Tm', 52.3),
  ('CGACGTGCCGTATGTGCTG+CAGCACATGCGGCACGTCG ((((((((((.((((((((+)))))))).))))))))))', 'Tm', 62.4),
  ('CGACGTGCTCGATGTGCTG+CAGCACATTCGGCACGTCG ((((((((...((((((((+))))))))...))))))))', 'Tm', 52.3),
  ('CGACGTGCTAGATGTGCTG+CAGCACATCGGGCACGTCG ((((((((..(((((((((+)))))))))..))))))))', 'Tm', 57),
  ('CGACGTGCGATATGTGCTG+CAGCACATAGCGCACGTCG (((((((((.(((((((((+))))))))).)))))))))', 'Tm', 61.3),
  ('CGACGTGCTATATGTGCTG+CAGCACATTAGGCACGTCG ((((((((...((((((((+))))))))...))))))))', 'Tm', 51.4),
  ('CGACGTGCTGAATGTGCTG+CAGCACATACCGCACGTCG ((((((((.(.((((((((+)))))))).).))))))))', 'Tm', 51.3),
  ('CGACGTGCCCGATGTGCTG+CAGCACATTTCGCACGTCG ((((((((...((((((((+))))))))...))))))))', 'Tm', 47.6),
  ('CGACGTGCGATATGTGCTG+CAGCACATGCCGCACGTCG (((((((((..((((((((+))))))))..)))))))))', 'Tm', 54.8),
  ('CGACGTGCGTAATGTGCTG+CAGCACATTAAGCACGTCG ((((((((.((((((((((+)))))))))).))))))))', 'Tm', 56.9),
  ('CGACGTGCTCAATGTGCTG+CAGCACATCAGGCACGTCG ((((((((...((((((((+))))))))...))))))))', 'Tm', 50.5),
  ('CGACGTGCTCTATGTGCTG+CAGCACATACGGCACGTCG ((((((((..(((((((((+)))))))))..))))))))', 'Tm', 49.7),
  ('CGACGTGCTACATGTGCTG+CAGCACATTGAGCACGTCG (((((((((..((((((((+))))))))..)))))))))', 'Tm', 52.8),
  ('CGACGTGCCAGATGTGCTG+CAGCACATAGTGCACGTCG ((((((((...((((((((+))))))))...))))))))', 'Tm', 45.6),
  ('CGACGTGCGATATGTGCTG+CAGCACATGCTGCACGTCG ((((((((...((((((((+))))))))...))))))))', 'Tm', 49.8),
  ('CGACGTGCCGAATGTGCTG+CAGCACATCAGGCACGTCG (((((((((..((((((((+))))))))..)))))))))', 'Tm', 55.4),
  ('CGACGTGCAGCATGTGCTG+CAGCACATGCCGCACGTCG ((((((((.((((((((((+)))))))))).))))))))', 'Tm', 59.1),
  ('CGACGTGCTCTATGTGCTG+CAGCACATCATGCACGTCG ((((((((...((((((((+))))))))...))))))))', 'Tm', 48.5),
  ('CGACGTGCTGGATGTGCTG+CAGCACATCAAGCACGTCG (((((((((.(((((((((+))))))))).)))))))))', 'Tm', 59),
  ('CGACGTGCATCATGTGCTG+CAGCACATTGGGCACGTCG ((((((((...((((((((+))))))))...))))))))', 'Tm', 50),
  ('CGACGTGCTATATGTGCTG+CAGCACATATAGCACGTCG (((((((((((((((((((+)))))))))))))))))))', 'Tm', 61.3),
  ('CGACGTGCTCAATGTGCTG+CAGCACATCTAGCACGTCG (((((((((..((((((((+))))))))..)))))))))', 'Tm', 51),
  ('CGACGTGCGTTATGTGCTG+CAGCACATTTTGCACGTCG ((((((((...((((((((+))))))))...))))))))', 'Tm', 49.7);
